test system: affinity purified β2GPI-dependent antiphospholipid antibody; test: Competitive inhibition ELISA: recombinant β2GPI proteins compete for antibody binding to coated full length recombinant β2GPI; set-up: species or system human; conditions: Ab 7015
readout.name: Max (maximum inhibition observed at concentrations tested) (%)
Respond numerically; units are % and should not be typed.

So what does the record say about Max (maximum inhibition observed at concentrations tested) for -2345: recombinant β2GPI deletion mutant with domains 2-5 (protein) GRTPRVCPFAGILENGAVRYTTFEYPNTISFSCNTGFYLNGADSAKCTEEGKWSPELPVCAPIICPPPSIPTFATLRVYKPSAGNNSLYRDTAVFECLPQHAMFGNDTITCTTHGNWTKLPECREVKCPFPSRPDNGFVNYPAKPTLYYKDKATFGCHDGYSLDGPEEIECTKLGNWSAMPSCKASCKLPVKKATVVYQGERVKIQEKFKNGMLHGDKVSFFCKNKEKKCSYTEDAQCIDGTIEVPKCFKEHSSLAFWKTDASDVKPCGHHHHHH ?
10
